quantity name: log10 of IC50 (log10 of the value in nM)
Values are log10 of IC50 in nM.

Report its log10 of IC50 with PIK3CD (Human) (UniProt O00329) as the test system: `CCn1ncc(-c2nc3c(O[C@H]4CCN(c5nccn6cnnc56)C4)ncnc3n2C)c1C`
Sequence (O00329 whole entry, looked up): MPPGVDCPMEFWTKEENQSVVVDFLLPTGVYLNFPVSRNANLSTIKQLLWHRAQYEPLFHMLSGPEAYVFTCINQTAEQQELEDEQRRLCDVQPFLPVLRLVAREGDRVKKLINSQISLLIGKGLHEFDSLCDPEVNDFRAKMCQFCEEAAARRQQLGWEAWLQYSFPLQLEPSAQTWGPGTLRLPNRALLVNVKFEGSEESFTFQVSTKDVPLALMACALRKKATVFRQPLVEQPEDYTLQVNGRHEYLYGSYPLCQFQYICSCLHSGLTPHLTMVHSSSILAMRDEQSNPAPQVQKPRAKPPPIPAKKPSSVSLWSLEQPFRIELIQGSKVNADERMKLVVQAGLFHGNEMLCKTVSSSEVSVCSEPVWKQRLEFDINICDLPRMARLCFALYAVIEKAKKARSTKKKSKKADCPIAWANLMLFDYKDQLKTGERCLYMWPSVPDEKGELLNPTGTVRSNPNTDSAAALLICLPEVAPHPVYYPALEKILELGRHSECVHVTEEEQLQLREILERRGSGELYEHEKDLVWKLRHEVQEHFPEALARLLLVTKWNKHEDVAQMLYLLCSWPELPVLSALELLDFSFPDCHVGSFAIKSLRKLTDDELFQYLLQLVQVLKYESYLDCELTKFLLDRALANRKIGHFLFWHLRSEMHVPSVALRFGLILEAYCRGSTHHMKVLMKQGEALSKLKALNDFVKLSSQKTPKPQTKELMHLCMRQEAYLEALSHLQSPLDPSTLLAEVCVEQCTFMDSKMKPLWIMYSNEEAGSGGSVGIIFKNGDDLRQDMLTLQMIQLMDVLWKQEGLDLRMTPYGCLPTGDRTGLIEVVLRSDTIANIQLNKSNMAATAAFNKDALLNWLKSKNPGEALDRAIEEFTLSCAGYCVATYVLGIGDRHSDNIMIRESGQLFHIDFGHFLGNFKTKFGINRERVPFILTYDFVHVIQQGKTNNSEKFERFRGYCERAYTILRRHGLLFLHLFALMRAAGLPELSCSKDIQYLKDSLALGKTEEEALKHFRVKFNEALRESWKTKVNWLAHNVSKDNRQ
1.48

Provide log10 of IC50, tested on PIK3CD (Human) (UniProt O00329), for `CCn1ncc(-c2nc3c(OC4CCN(C(=O)C5CCOCC5)CC4)ncnc3n2C)c1C` .
3.04

Given `CCn1c(-c2cnc(C)nc2)nc2c(O[C@H]3CCCN(c4ccccn4)C3)ncnc21` , report its log10 of IC50 on PIK3CD (Human) (UniProt O00329).
1.86

Report log10 of IC50 under test system PIK3CD (Human) (UniProt O00329) for `CCn1ncc(-c2nc3c(O[C@H]4CCN(C(=O)OCC(C)C)C4)ncnc3n2C)c1C` .
1.23

Please respond with reported log10 of IC50 (system PIK3CD (Human) (UniProt O00329)) for `CCc1nc(C)c(C(=O)N2CC[C@H](Oc3ncnc4c3nc(-c3cnn(CC)c3C)n4C)C2)o1` .
1.08

* * *

I'd be grateful if you could share measured pIC50 for these entries.
In simple prose, pIC50 is minus the logarithm base ten of a concentration in moles per litre.

Using PIK3CD (Human) as the test system, report measured pIC50 of `CCn1c(-c2cnc(C(F)(F)F)nc2)nc2c(O[C@H]3CCN(C(=O)C4CC4)C3)ncnc21` .
7.74

Please report the measured pIC50 for `CCn1ncc(-c2nc3c(O[C@H]4CCN(c5ncccn5)C4)ncnc3n2C)c1C` tested on PIK3CD (Human).
7.68

Under PIK3CD (Human), report pIC50 for `CCn1ncc(-c2nc3c(O[C@H]4CCN(C(=O)c5cc(C)n(C)c5C)C4)ncnc3n2C)c1C`
7.70

Check PIK3CD (Human) data and give pIC50 for `CCC(=O)N1CC[C@H](Oc2ncnc3c2nc(-c2cnc(OC)c(C#N)c2)n3C)C1` .
8.08

Under PIK3CD (Human), report pIC50 for `CCC(=O)N1CC[C@H](Oc2ncnc3c2nc(-c2cnn4c2CCC4)n3C)C1`
7.64

Return reported pIC50 for target or system PIK3CD (Human), item `Cn1c(-c2cnn3cccnc23)nc2c(O[C@H]3CCN(C(=O)OC(C)(C)C)C3)ncnc21` .
6.68

* * *

Task for the reader: assign each of the following compounds its reported pIC50.
Just the number, please; pIC50 means minus log10 of the concentration in mol/L.

Please tell me the measured pIC50 for `CCn1ncc(-c2nc3c(O[C@H]4CCN(C(=O)c5nc(C(C)(C)O)no5)C4)ncnc3n2C)c1C` ; system: PIK3CD (Human).
6.96

State pIC50 (PIK3CD (Human)) of `Cn1c(-c2cnc(C(C)(C)C)s2)nc2c(O[C@H]3CCN(C(=O)OC(C)(C)C)C3)ncnc21` .
8.16

Send back PIK3CD (Human) pIC50 of `CCn1ncc(-c2nc3c(S[C@H]4CCN(C(=O)c5ccn(C)n5)C4)ncnc3n2C)c1C` only.
7.72

Specify the recorded pIC50 for CCn1c(-c2cnc(C)nc2)nc2c(OC3CN(C(=O)C4CC4)CC3C)ncnc21 (centres undefined) , system: PIK3CD (Human).
8.54

For PIK3CD (Human), give the measured pIC50 of the entry `CCn1ncc(-c2nc3c(O[C@H]4CCN(C(=O)CN5CCCC5=O)C4)ncnc3n2C)c1C`
6.32

Print PIK3CD (Human) pIC50 for `CCNC(=O)c1nc2c(O[C@H]3CCN(C(=O)OC(C)(C)C)C3)ncnc2n1CC` .
6.51

// fetch pIC50 for `CCn1ncc(-c2nc3c(O[C@H]4CCN(c5ncnc6sc(C)cc56)C4)ncnc3n2C)c1C` ; system: PIK3CD (Human)
8.28

Report its pIC50 with PIK3CD (Human) as the test system: `CCn1c(-c2cnc(C)nc2)nc2c(O[C@H]3CCN(C(=O)OCCCN(C)C)C3)ncnc21`
7.43

Write down measured pIC50 (PIK3CD (Human)) for this compound. CCn1ncc(-c2nc3c(O[C@H]4CCN(C(=O)C5CC(=O)N(C)C5)C4)ncnc3n2C)c1C (some centres undefined)
7.52

With PIK3CD (Human) as the test system, provide measured pIC50 for this compound: `CCn1ncc(-c2nc3c(O[C@H]4CCN(C(=O)c5ccc(N6CCN(C)CC6)cc5)C4)ncnc3n2C)c1C`
6.96

Report pIC50 from PIK3CD (Human) testing of `CCn1ncc(-c2nc3c(S[C@H]4CCN(C(=O)OCC(C)C)C4)ncnc3n2C)c1C`
7.52

State, for PIK3CD (Human), measured pIC50 of the compound listed here: `CCC(=O)N1CC[C@H](Oc2ncnc3c2nc(-c2ccc(C(F)(F)F)nc2)n3C)C1`
7.00

Check PIK3CD (Human) data and give pIC50 for `CCn1ncc(-c2nc3c(O[C@H]4CCN(C(=O)c5ccncc5)C4)ncnc3n2C)c1C` .
7.89

System PIK3CD (Human). Read-out pIC50. Item `CCn1ncc(-c2nc3c(OC4CCN(C(=O)C5CCCC5)CC4)ncnc3n2C)c1C` . Report value.
6.26

Name the recorded pIC50 of `CCn1ncc(-c2nc3c(O[C@H]4CCN(C(=O)c5ccn[nH]5)C4)ncnc3n2C)c1C` , assay system PIK3CD (Human).
8.52

Answer with pIC50 of `CCC(=O)N1CC[C@H](Oc2ncnc3c2nc(-c2cnc(C)nc2)n3CC)C1` measured for PIK3CD (Human).
7.89

Provide pIC50, recorded with PIK3CD (Human), of `CCn1ncc(-c2nc3c(O[C@H]4CCN(C(=O)c5cn6cccnc6n5)C4)ncnc3n2C)c1C`
7.00

Jot down pIC50 (PIK3CD (Human)) of `CCn1c(-c2cnc(C)nc2)nc2c(O[C@H]3CCN(c4cccc(F)c4)C3)ncnc21` .
8.66

Give measured pIC50 for `CCn1c(C(=O)NCC2CC2)nc2c(O[C@H]3CCN(C(=O)OC(C)(C)C)C3)ncnc21` (PIK3CD (Human)).
6.82
